Recorded values, source ChEMBL document CHEMBL1139469.

target: UniProtKB P28190
pKi: −log10 of the molar value.
// NO strictly below 7 in pKi; YES otherwise

[
  {
    "Molecule": "O=c1c(-c2ccccc2)nnc2n(-c3ccccc3)c3ccccc3n12",
    "Assigned category": "YES"
  },
  {
    "Molecule": "Nc1nc2ccccc2n2c(=O)n(-c3ccccc3)nc12",
    "Assigned category": "YES"
  },
  {
    "Molecule": "Cc1ccc2c(O)cc(-c3ccc(F)cc3)nc2n1",
    "Assigned category": "YES"
  },
  {
    "Molecule": "Oc1c(-c2ccco2)nnc2nc3ccccc3n12",
    "Assigned category": "NO"
  },
  {
    "Molecule": "Cc1cccc(-n2nc3c(N)nc4ccccc4n3c2=O)c1",
    "Assigned category": "YES"
  },
  {
    "Molecule": "Oc1ccc(-c2nnc3nc4ccccc4n3c2O)cc1",
    "Assigned category": "NO"
  },
  {
    "Molecule": "Cc1ccc2c(NC3CCCCC3)cc(-c3ccccc3)nc2n1",
    "Assigned category": "YES"
  },
  {
    "Molecule": "CCOc1ccc2c(OCC)cc(-c3ccccc3)nc2n1",
    "Assigned category": "NO"
  },
  {
    "Molecule": "O=C(OCC1CC1)c1cnc2c(cnn2CC(Cl)c2ccccc2)c1NCCc1ccccc1 (stereo unspecified)",
    "Assigned category": "YES"
  },
  {
    "Molecule": "CCCCOC(=O)c1cnc2c(cnn2CC(Cl)c2ccccc2)c1NCc1ccccc1 (stereo unspecified)",
    "Assigned category": "NO"
  },
  {
    "Molecule": "Cc1cc(O)c2ccc(=O)[nH]c2n1",
    "Assigned category": "NO"
  },
  {
    "Molecule": "CCCCOC(=O)c1cnc2c(cnn2CC(Cl)c2ccccc2)c1N1CCOCC1 (stereo unspecified)",
    "Assigned category": "NO"
  },
  {
    "Molecule": "CCCCOC(=O)c1cnc2c(cnn2CC(Cl)c2ccccc2)c1N1CCCC1 (stereo unspecified)",
    "Assigned category": "NO"
  },
  {
    "Molecule": "Oc1cc(-c2ccccc2)nc2nc(Br)ccc12",
    "Assigned category": "YES"
  },
  {
    "Molecule": "CC(C)OC(=O)c1cnc2c(cnn2CC(Cl)c2ccccc2)c1NCc1ccccc1 (stereo unspecified)",
    "Assigned category": "NO"
  },
  {
    "Molecule": "CSc1nc(NCCc2ccccc2)c2cnn(CC(Cl)c3ccccc3)c2n1 (stereo unspecified)",
    "Assigned category": "NO"
  },
  {
    "Molecule": "CCOC(=O)c1cnc2c(cnn2CC(Cl)c2ccccc2)c1NCCc1cccc(F)c1 (stereo unspecified)",
    "Assigned category": "YES"
  },
  {
    "Molecule": "CCCNc1c(C(=O)OC(C)CC)cnc2c1cnn2CC(Cl)c1ccccc1 (stereo unspecified)",
    "Assigned category": "YES"
  },
  {
    "Molecule": "COC(=O)c1cnc2c(cnn2CC(Cl)c2ccccc2)c1N1CCCC1 (stereo unspecified)",
    "Assigned category": "NO"
  },
  {
    "Molecule": "Nc1nc2ccccc2n2c(=O)n(-c3cccc(F)c3)nc12",
    "Assigned category": "YES"
  },
  {
    "Molecule": "COc1cc(-c2ccccc2)nc2c1ccc(=O)n2C",
    "Assigned category": "NO"
  },
  {
    "Molecule": "COc1ccc(CCNc2c(C(=O)OC(C)C)cnc3c2cnn3CC(Cl)c2ccccc2)cc1 (stereo unspecified)",
    "Assigned category": "YES"
  },
  {
    "Molecule": "CCOc1ccc2c(O)cc(-c3ccccc3)nc2n1",
    "Assigned category": "YES"
  },
  {
    "Molecule": "O=c1c(Cc2ccccc2)nnc2n(Cc3ccccc3)c3ccccc3n12",
    "Assigned category": "NO"
  },
  {
    "Molecule": "CCCOC(=O)c1cnc2c(cnn2CC(Cl)c2ccccc2)c1N1CCOCC1 (stereo unspecified)",
    "Assigned category": "NO"
  },
  {
    "Molecule": "CCOC(=O)c1cnc2c(cnn2CC(Cl)c2ccccc2)c1N1CCOCC1 (stereo unspecified)",
    "Assigned category": "NO"
  },
  {
    "Molecule": "Cc1ccc2c(O)ccnc2n1",
    "Assigned category": "NO"
  },
  {
    "Molecule": "Oc1ccc(-c2nnc3nc4ccccc4n3c2O)cc1O",
    "Assigned category": "NO"
  },
  {
    "Molecule": "CCCNc1nc(SC)nc2c1cnn2CC(Cl)c1ccccc1 (stereo unspecified)",
    "Assigned category": "NO"
  },
  {
    "Molecule": "Cn1c2ccccc2n2c(=O)c(-c3ccc(Cl)cc3)nnc12",
    "Assigned category": "NO"
  },
  {
    "Molecule": "COc1ccc(-n2nc3c(N)nc4ccccc4n3c2=O)cc1",
    "Assigned category": "NO"
  },
  {
    "Molecule": "Cc1nnc2nc3ccccc3n2c1O",
    "Assigned category": "NO"
  }
]
